The reported measurements were obtained from patent US20200216495A1.

Hi there, I'd appreciate the recorded IC50, Tau40 assay (ThT) for every entry that follows.
Target under test: Tau40 P301L protein (human)
Method summary: cell-based or functional assay
Square brackets hold non-standard residues; d marks the D form. Ends that are not written are not given here.
Answers are plain numbers, in µM.

Examples from the recorded data:
{"Binder": "[dF][dE][dL][dH][dI][dK][dW][dH] [felhikwh (PEPTIDE ID NO: 134)]", "Scale unit": "µM", "IC50, Tau40 assay (ThT)": 2.34}
{"Binder": "[dL][dK][dI][dK][dL][dR][dH][dY] [lkiklrhy (PEPTIDE ID NO: 144)]", "Scale unit": "µM", "IC50, Tau40 assay (ThT)": 1.09}
{"Binder": "[dL][dK][dI][dR][dI][dL][dY][dH] [lkirilyh (PEPTIDE ID NO: 208)]", "Scale unit": "µM", "IC50, Tau40 assay (ThT)": 0.79}
{"Binder": "[dY][dH][dL][dK][dL][dH][dY][dW] [yhlklhyw (PEPTIDE ID NO: 440)]", "Scale unit": "µM", "IC50, Tau40 assay (ThT)": 2.17}
{"Binder": "[dR][dK][dI][dR][dI][dH][dY][dH] [rkirihyh (PEPTIDE ID NO: 227)]", "Scale unit": "µM", "IC50, Tau40 assay (ThT)": 0.89}

Hi! Can you tell me IC50, Tau40 assay (ThT) for each of these binders?
1. [dF][dR][dL][dR][dI][dW][dW] [frlriww (PEPTIDE ID NO: 423)]
2. [dH][dW][dR][dW][dR][dW][dR] [hwrwrwr (PEPTIDE ID NO: 326)]

[1.41, 2.69]
